# Test system: wild mustard (Sinapis arvensis)
# EXPERIMENTAL PROTOCOL: Test C postemergence, plant response rating
# Assay type: in vivo
# APPLIED CONDITIONS: 31 g ai/ha, scale 0 to 100
Recorded Plant response rating, Mustard, Wild values for a group of compounds are listed next.
OBSERVED PROPERTY: Plant response rating, Mustard, Wild

compound="O=C(CCCC(F)(F)F)c1c(Oc2ncc(Cl)cn2)cccc1C(F)(F)F [Compound 125]" experimental_target="wild mustard (Sinapis arvensis)" measured_number=95
compound="O=C(CCCC(F)(F)F)c1c(Cl)cccc1Oc1ncc(Cl)cn1 [Compound 143]" experimental_target="wild mustard (Sinapis arvensis)" measured_number=100
compound="O=C(CCCCC(F)(F)F)c1c(Br)cccc1Oc1ncc(Cl)cn1 [Compound 82]" experimental_target="wild mustard (Sinapis arvensis)" measured_number=95
compound="O=C(CCC(F)(F)C(F)(F)F)c1c(Br)cccc1Oc1ncc(Cl)cn1 [Compound 110]" experimental_target="wild mustard (Sinapis arvensis)" measured_number=90
compound="O=C(CCC(F)(F)F)c1c(Cl)cccc1Oc1ncc(Cl)cn1 [Compound 107]" experimental_target="wild mustard (Sinapis arvensis)" measured_number=90
compound="N#Cc1cccc(Oc2ncc(Cl)cn2)c1COCCC(F)(F)F [Compound 80]" experimental_target="wild mustard (Sinapis arvensis)" measured_number=80

###

# Test system: nutsedge, yellow (yellow nutsedge, Cyperus esculentus)
# EXPERIMENTAL PROTOCOL: Test C postemergence, plant response rating
# Format: in vivo
# APPLIED CONDITIONS: Cyperus, post-emergence, 62 g ai/ha, scale 0 to 100 (0 no effect, 100 complete control)
Documented pest or weed control at 62 g/ha across a set of compounds
OBSERVED PROPERTY: pest or weed control at 62 g/ha

structure_notation=N#Cc1cccc(Oc2ncc(Cl)cn2)c1CCCCC(F)(F)F result=20%
structure_notation=C=CCCOC(=O)c1c(Br)cccc1Oc1ncc(Cl)cn1 result=5%
structure_notation=O=C(OCCC(F)(F)F)c1c(Br)cccc1Oc1ncc(Cl)cn1 result=10%
structure_notation=C=CCOC(=O)c1c(Br)cccc1Oc1ncc(Cl)cn1 result=5%

###

Here the recorded Plant response rating, Blackgrass is given for each entry.
# Tested on: blackgrass (Alopecurus myosuroides)
# EXPERIMENTAL PROTOCOL: Test C postemergence, plant response rating
# Format: in vivo
# APPLIED CONDITIONS: 31 g ai/ha, scale 0 to 100
OBSERVED PROPERTY: Plant response rating, Blackgrass

compound="FC(F)(F)CCCc1c(Br)cccc1Oc1ncc(Cl)cn1 [Compound 89]" observed_property="Plant response rating, Blackgrass" measured_number=15
compound="CCCCC(=O)c1c(Br)cccc1Oc1ncc(Cl)cn1 [Compound 79]" observed_property="Plant response rating, Blackgrass" measured_number=10
compound="O=C(CCCC(F)(F)F)c1c(Cl)cccc1Oc1ncc(Cl)cn1 [Compound 143]" observed_property="Plant response rating, Blackgrass" measured_number=15
compound="O=C(CCCC(F)(F)F)c1c(Oc2ncc(Cl)cn2)cccc1C(F)(F)F [Compound 125]" observed_property="Plant response rating, Blackgrass" measured_number=20
compound="O=C(OCCC(F)(F)F)c1c(Br)cccc1Oc1ncc(Br)cn1 [Compound 33]" observed_property="Plant response rating, Blackgrass" measured_number=5

###

# Test system: barnyardgrass (Echinochloa crus-galli)
# EXPERIMENTAL PROTOCOL: Test A preemergence, visual injury rating
# Assay type: in vivo
# APPLIED CONDITIONS: 125 g ai/ha, 0 to 100 scale (0 no effect, 100 complete control)
Reported values of Barnyardgrass plant response rating for individual entries
OBSERVED PROPERTY: Barnyardgrass plant response rating

compound=C=C(Br)COC(=O)c1c(Br)cccc1Oc1ncc(Cl)cn1 measured_number=50
compound=O=C(OCC(F)(F)F)c1c(Br)cccc1Oc1ncc(Cl)cn1 measured_number=70
compound="CCC(C)OC(=O)c1c(Br)cccc1Oc1ncc(Cl)cn1 (centres unmarked)" measured_number=0
compound=CCCCC(=O)c1c(Br)cccc1Oc1ncc(Cl)cn1 measured_number=100
compound=CC(C)(C)OC(=O)c1c(F)cccc1Oc1ncc(Cl)cn1 measured_number=40

###

# System: soybean (Glycine max)
# EXPERIMENTAL PROTOCOL: Test C postemergence, plant response rating
# Format: in vivo
# APPLIED CONDITIONS: 16 g ai/ha, scale of 0 to 100
OBSERVED PROPERTY: Plant response rating, Soybean

structure_notation=CCCCC(=O)c1c(Oc2ncc(Cl)cn2)cccc1C(F)(F)F observed_property="Plant response rating, Soybean" measured_number=40
structure_notation=CCCCC(=O)c1c(Br)cccc1Oc1ncc(Cl)cn1 observed_property="Plant response rating, Soybean" measured_number=60
structure_notation=N#Cc1cccc(Oc2ncc(Cl)cn2)c1COCCC(F)(F)F observed_property="Plant response rating, Soybean" measured_number=60
structure_notation=CCCC(=O)c1c(Oc2ncc(Cl)cn2)cccc1C(F)(F)F observed_property="Plant response rating, Soybean" measured_number=30
structure_notation=FC(F)(F)CCCCc1c(Br)cccc1Oc1ncc(Cl)cn1 observed_property="Plant response rating, Soybean" measured_number=35
structure_notation=FC(F)(F)CCCc1c(Br)cccc1Oc1ncc(Cl)cn1 observed_property="Plant response rating, Soybean" measured_number=35

###

# Test system: pigweed (Amaranthus retroflexus)
# EXPERIMENTAL PROTOCOL: Test A postemergence, visual injury rating
# Type: in vivo
# APPLIED CONDITIONS: 125 g ai/ha, 0 to 100 scale, 0 is no effect, 100 is complete control, approximately 10 days
OBSERVED PROPERTY: Pigweed plant response rating

compound="CCCCC(C#N)c1ccccc1Oc1ncc(Cl)cn1 (centres unmarked)" experimental_target="pigweed (Amaranthus retroflexus)" measured_number=70
compound=O=C(CCC(F)(F)F)c1c(Br)cccc1Oc1ncc(Cl)cn1 experimental_target="pigweed (Amaranthus retroflexus)" measured_number=100
compound=C=C(C)CCOC(=O)c1c(Br)cccc1Oc1ncc(Cl)cn1 experimental_target="pigweed (Amaranthus retroflexus)" measured_number=50
compound=CC(=NOC(C)C)c1c(Cl)cccc1Oc1ncc(Cl)cn1 experimental_target="pigweed (Amaranthus retroflexus)" measured_number=40
compound=CN(CCCC(F)(F)F)c1c(C#N)cccc1Oc1ncc(Cl)cn1 experimental_target="pigweed (Amaranthus retroflexus)" measured_number=10

###

# Test system: oilseed rape (Brassica napus)
# EXPERIMENTAL PROTOCOL: Test C preemergence, plant response rating
# Assay type: in vivo
# APPLIED CONDITIONS: Preemergence; 31 g ai/ha; scale 0 to 100
Catalogue of Plant response rating, Oilseed Rape values
OBSERVED PROPERTY: Plant response rating, Oilseed Rape

structure_notation=O=C(OCCC(F)(F)F)c1c(Br)cccc1Oc1ncc(Br)cn1 observed_property="Plant response rating, Oilseed Rape" measured_number=80
structure_notation=C=C(Br)COC(=O)c1c(Br)cccc1Oc1ncc(Cl)cn1 observed_property="Plant response rating, Oilseed Rape" measured_number=0
structure_notation=N#Cc1cccc(Oc2ncc(Cl)cn2)c1COCCC(F)(F)F observed_property="Plant response rating, Oilseed Rape" measured_number=80
structure_notation=FC(F)(F)CCCc1c(Br)cccc1Oc1ncc(Cl)cn1 observed_property="Plant response rating, Oilseed Rape" measured_number=0
structure_notation=FC(F)(F)CCCCc1c(Br)cccc1Oc1ncc(Cl)cn1 observed_property="Plant response rating, Oilseed Rape" measured_number=0
structure_notation=O=C(CCCC(F)(F)F)c1c(Br)cccc1Oc1ncc(Cl)cn1 observed_property="Plant response rating, Oilseed Rape" measured_number=55
structure_notation=N#Cc1cccc(Oc2ncc(Cl)cn2)c1CCCC(F)(F)F observed_property="Plant response rating, Oilseed Rape" measured_number=80

###

Parameter: pest or weed control at 31 g/ha. Scope: all listed entries.
# Tested on: oat, wild (wild oat Avena fatua)
# EXPERIMENTAL PROTOCOL: Test C postemergence, plant response rating
# Assay type: in vivo
# APPLIED CONDITIONS: Avena fatua, post-emergence, 31 g ai/ha, scale 0 to 100
OBSERVED PROPERTY: pest or weed control at 31 g/ha

compound="N#Cc1cccc(Oc2ncc(Cl)cn2)c1CCCCC(F)(F)F [Compound 73]" observed_property="pest or weed control at 31 g/ha" result=5%
compound="O=C(OCCC(F)(F)F)c1c(Cl)cccc1Oc1ncc(Cl)cn1 [Compound 15]" observed_property="pest or weed control at 31 g/ha" result=5%
compound="O=C(OCC(F)(F)C(F)(F)F)c1c(Br)cccc1Oc1ncc(Cl)cn1 [Compound 23]" observed_property="pest or weed control at 31 g/ha" result=5%
compound="C=CCCOC(=O)c1c(Br)cccc1Oc1ncc(Cl)cn1 [Compound 21]" observed_property="pest or weed control at 31 g/ha" result=0%
compound="O=C(CCC(F)(F)F)c1c(Cl)cccc1Oc1ncc(Cl)cn1 [Compound 107]" observed_property="pest or weed control at 31 g/ha" result=40%
